Item-by-item account of EC50
Tested on: B cell
ASSAY SUMMARY: B cell proliferation
Format: cell-based

Sample records with EC50:
> print(dat)
                                   compound  observed.property  reported.result
1  Cc1cccc2cc(Cn3nc(I)c4c(N)ncnc43)n(C3CCCC3)c(=O)c12 [Compound 57]               EC50       < 10000 nM
2  Cc1cccc2cc(Cn3nc(I)c4c(N)ncnc43)n(-c3ccccc3C(C)C)c(=O)c12 [Compound 75]               EC50         < 100 nM
3  Cc1cccc2cc([C@@H](C)Nc3ncnc4[nH]cnc34)n(-c3ccccc3)c(=O)c12 [Compound 195]               EC50        < 1000 nM

Lab note: next compound to report on.
Cc1cccc2cc(Cn3nc(-c4cccc(O)c4)c4c(N)ncnc43)n(C(C)C)c(=O)c12 [Compound 62] has a reported EC50 of < 100 nM

---

ASSAY SUMMARY: Clinical study in healthy adult subjects: pharmacokinetics
Format: in vivo, human
EXPERIMENTAL PARAMETERS: human, plasma, po, 10 mg, single oral dose 10 mg, mean (%CV), read-out: T1/2 (converted)
OBSERVED PROPERTY: half-life (min)
Give the quantity in min, number only.

The recorded half-life for entry `C[C@H](Nc1ncnc2[nH]cnc12)c1cc2cccc(Cl)c2c(=O)n1-c1ccccc1` equals 568

---

ASSAY SUMMARY: Clinical study in healthy adult subjects: pharmacokinetics
Format: in vivo, human
EXPERIMENTAL PARAMETERS: human, plasma, po, 1 mg, single oral dose 1 mg, mean (%CV), read-out: AUC(0-24)
OBSERVED PROPERTY: AUC(0-t)
Write the quantity with the unit trailing the number.

Sample `C[C@H](Nc1ncnc2[nH]cnc12)c1cc2cccc(Cl)c2c(=O)n1-c1ccccc1` ; AUC(0-t) observed: 149 ng·h/mL

---

ASSAY SUMMARY: Clinical study in healthy adult subjects: pharmacokinetics
Type: in vivo, human
EXPERIMENTAL PARAMETERS: human, plasma, po, 20 mg, single oral dose 20 mg, mean (%CV), read-out: AUC(0-24)
OBSERVED PROPERTY: AUC(0-t)
Could you write the number and then its unit?

Memo: C[C@H](Nc1ncnc2[nH]cnc12)c1cc2cccc(Cl)c2c(=O)n1-c1ccccc1 [Compound 292] , reported AUC(0-t): 2190 ng·h/mL

---

ASSAY SUMMARY: Clinical study in healthy adult subjects: pharmacokinetics
Type: in vivo, human
EXPERIMENTAL PARAMETERS: human, plasma, single oral dose 20 mg, mean (%CV)
OBSERVED PROPERTY: AUC(0-inf)

Notebook: C[C@H](Nc1ncnc2[nH]cnc12)c1cc2cccc(Cl)c2c(=O)n1-c1ccccc1 [Compound 292] , AUC(0-inf) read as 2250 ng·h/mL

---

Test system: B cell
ASSAY SUMMARY: B cell proliferation
Format: cell-based
pEC50: −log10 of the molar value.
OBSERVED PROPERTY: pEC50

# CCC(Nc1ncnc2[nH]cnc12)c1cc2cccc(C)c2c(=O)n1C(C)C (stereo not shown) with B cell: pEC50 is > 7.00

pEC50 on B cell for `Cc1ccccc1-n1c(Cn2nc(C#CC3CC3)c3c(N)ncnc32)cc2cccc(C)c2c1=O` is > 6.00

Assay B cell, sample `Cc1ccccc1-n1c(Cn2nc(C#C[C@@H](C)O)c3c(N)ncnc32)cc2cccc(F)c2c1=O` , pEC50 read: > 5.00

Field pEC50 (B cell), entry `Cc1cccc2cc(Cn3nc(-c4cccc(F)c4)c4c(N)ncnc43)n(-c3ccccc3F)c(=O)c12` : > 5.00
